- tested_on: T1, SHANK1, Q9Y566
- T1 sequence (Q9Y566 658-767, limits assumed, looked up): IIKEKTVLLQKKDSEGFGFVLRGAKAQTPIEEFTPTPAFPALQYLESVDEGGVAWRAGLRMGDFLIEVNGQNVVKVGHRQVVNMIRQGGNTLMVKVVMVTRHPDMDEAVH
- test: holdup assay
- Design: key: below the threshold = too weak to quantify, mostly under pKd 3.1 to 4
- condition_details: plain residues with an end cap or a label only (N-terminal biotin on a linker: ado-ado)
test_readout: pKd

See these solved cases before continuing.
> print(dat)
                              binder       recorded.value
1        EDLEDEWEVI [TECPR2, O15040]  below the threshold
2       PTPDLPQTRV [KLHDC7A, Q5VTJ3]                  4.5
3         ARSAAASNYV [CLDN4, O14493]  below the threshold
4        RDPPAEWTRV [PTPN18, Q99952]                 5.05
5          APIAGFSSFV [SDK2, Q58EX2]  below the threshold
6  KSRVAFFEEL [NF2, P35240;P35240-1]  below the threshold
7         QLSFNTDTLC [ABCA2, Q9BZC7]  below the threshold

Next binder, pKd to be filled in.
## Task Give the measured pKd of KKMLQRRTLL [OR8G1, Q15617] .
## Result 4.71
